Molecular target: human FXR (Homo sapiens, UniProt Q96RI1)
Construct: expressed in transfected cells; host or cells: HEK293 cells stably carrying a 5xGal4-response-element firefly luciferase reporter, transiently transfected with pcDNA3.1-Gal4-FXR
Sequence (Q96RI1 262-486 limits assumed): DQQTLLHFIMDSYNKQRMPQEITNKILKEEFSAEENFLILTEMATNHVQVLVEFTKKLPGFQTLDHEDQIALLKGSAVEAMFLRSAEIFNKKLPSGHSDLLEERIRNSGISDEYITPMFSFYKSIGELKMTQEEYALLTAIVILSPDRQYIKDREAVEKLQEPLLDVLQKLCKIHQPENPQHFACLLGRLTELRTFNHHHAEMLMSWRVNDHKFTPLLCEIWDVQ
Assay: transient human FXR/Gal4-luciferase reporter assay
Format: cell-based
Settings: Gal4-hFXR fusion construct, luciferase reporter HEK293 cells; response relative to 8 μM GW-4064; unit inferred
REPORTED PROPERTY: EC50 (nM)

> print(dat)
                                   compound   u  data.value
1  NC(=O)c1ncc(OCC2CC3(CC(/C=C/c4c(-c5ccccc5C(F)(F)F)noc4C4CC4)C3)C2)cc1OC1CCC1 (stereo not shown) [Example 63]  nM         393

1. COc1cc(C(=O)O)nc2ccc(N3CC4(CC(/C=C/c5c(-c6cccnc6C(F)(F)F)noc5C5CC5)C4)C3)cc12 [Example 22]
2. CC(C)Oc1cc(C(=O)O)nc2ccc(N3CC4(CC(/C=C/c5c(-c6ccccc6C(F)(F)F)noc5C5CC5)C4)C3)cc12 [Example 12]
3. O=C(O)c1cc(C(F)(F)F)c2cc(N3CC4(CC(/C=C/c5c(-c6c(Cl)cncc6Cl)noc5C5CC5)C4)C3)ccc2n1 [Example 7]
4. NC(=O)Cc1ccc(OCC2CC3(CC(/C=C/c4c(-c5ccccc5C(F)(F)F)noc4C4CC4)C3)C2)cc1 (stereo not shown) [Example 49]
Qu. Your job: order these 4 records by EC50, ascending. Answer with the labels in sequence, matching the requested order.
Ans. 2, 1, 4, 3
(2: 29 nM, 1: 111 nM, 4: 178 nM, 3: 530 nM)

I. O=C(O)c1ccc(N2CC3(CC(/C=C/c4c(-c5c(Cl)cccc5Cl)noc4C4CC4)C3)C2)cc1 [Example 5]
II. Cn1nc(C(=O)O)cc1OCC1CC2(CC(/C=C/c3c(-c4c(Cl)cncc4Cl)noc3C3CC3)C2)C1 (stereo not shown) [Example 45]
Qu. Between I and II , whose recorded EC50 is greater? Write down the label attached to your selection.
Ans. I

====

Molecular target: human FXR (Homo sapiens)
Construct: expressed in transfected cells; host or cells: HEK293 cells stably carrying a 5xGal4-response-element firefly luciferase reporter, transiently transfected with pcDNA3.1-Gal4-FXR
Sequence (Q96RI1 262-486 limits assumed): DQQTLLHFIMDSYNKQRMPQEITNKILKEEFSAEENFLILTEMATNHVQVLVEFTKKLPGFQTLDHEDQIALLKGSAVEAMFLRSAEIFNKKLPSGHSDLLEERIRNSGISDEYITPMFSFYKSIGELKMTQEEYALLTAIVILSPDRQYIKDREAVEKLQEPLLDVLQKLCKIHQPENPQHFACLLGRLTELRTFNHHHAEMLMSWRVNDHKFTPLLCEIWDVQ
Assay: transient human FXR/Gal4-luciferase reporter assay
Type: cell-based
Conditions: Gal4-hFXR fusion construct, luciferase reporter HEK293 cells; response relative to 8 μM GW-4064; unit inferred
Description: The exemplified compounds of the present invention were tested in the transient human FXR/Gal4-luciferase reporter assay, and assay results were reported in Table 1 and Examples 1 to 3 together with other analytical data. A Gal4-hFXR fusion construct reporter system was used as the primary assay to characterize compound activity. A construct including 5 copies of the Gal4 promoter response element upstream of a firefly luciferase reporter cDNA was stably expressed in HEK293 cells. […]
REPORTED PROPERTY: EC50 (µM)

Solved entries (count: 4):
> print(dat)
                                   molecule  data.value
1  COc1cc(C(=O)O)nc2ccc(N3CC4(CC(/C=C/c5c(-c6c(Cl)cncc6Cl)noc5C5CC5)C4)C3)nc12        1.63
2  Cc1cc(C(=O)O)nc2sc(N3CC4(CC(/C=C/c5c(-c6ccccc6C(F)(F)F)noc5C5CC5)C4)C3)nc12       0.268
3  CC(C)Oc1cc(C(=O)O)nc2ccc(N3CC4(CC(/C=C/c5c(-c6ncccc6C(F)(F)F)noc5C5CC5)C4)C3)cc12       0.085
4  O=C(O)c1ncc(OCC2CC3(CC(/C=C/c4c(-c5c(Cl)cncc5Cl)noc4C4CC4)C3)C2)cc1C(F)(F)F (stereo not shown)        0.05

A. O=C(O)c1cc2ccc(OCC3CC4(CC(/C=C/c5c(-c6c(Cl)cncc6Cl)noc5C5CC5)C4)C3)cc2nn1 (stereo not shown)
B. O=C(O)c1cc(C(F)(F)F)c2cc(N3CC4(CC(/C=C/c5c(-c6ccncc6Cl)noc5C5CC5)C4)C3)ccc2n1
Qu. Larger number for EC50: A , or B ? The response must carry the label of the picked entry.
Ans. B
(B: 0.14 µM, A: 0.075 µM)

====

Target: human FXR (Homo sapiens)
Construct: expressed in transfected cells; host or cells: HEK293 cells stably carrying a 5xGal4-response-element firefly luciferase reporter, transiently transfected with pcDNA3.1-Gal4-FXR
Experiment: transient human FXR/Gal4-luciferase reporter assay
Type: cell-based
Settings: Gal4-hFXR fusion construct, luciferase reporter HEK293 cells; response relative to 8 μM GW-4064; unit inferred
Procedure: The exemplified compounds of the present invention were tested in the transient human FXR/Gal4-luciferase reporter assay, and assay results were reported in Table 1 and Examples 1 to 3 together with other analytical data. A Gal4-hFXR fusion construct reporter system was used as the primary assay to characterize compound activity. A construct including 5 copies of the Gal4 promoter response element upstream of a firefly luciferase reporter cDNA was stably expressed in HEK293 cells. […]
pEC50: −log10 of the molar value.
REPORTED PROPERTY: pEC50

Look over these answered cases.
> print(dat)
                                   compound  reported.property  data.value
1  CN1CCN(c2cc(C(=O)O)nc3ccc(OCC4CC5(CC(/C=C/c6c(-c7ccccc7C(F)(F)F)noc6C6CC6)C5)C4)cc23)CC1 (stereo not shown) [Example 67]              pEC50        6.52
2  Cc1cc(OCC2CC3(CC(/C=C/c4c(-c5ccccc5C(F)(F)F)noc4C4CC4)C3)C2)cnc1C(=O)O (stereo not shown) [Example 50]              pEC50        6.85
3  O=C(O)c1ccc2cc(OCC3CC4(CC(/C=C/c5c(-c6ccccc6C(F)(F)F)noc5C5CC5)C4)C3)ccc2n1 (stereo not shown) [Example 53]              pEC50        6.73
4  O=C(O)c1cc(O[C@@H]2CCOC2)c2cc(N3CC4(CC(/C=C/c5c(-c6ccccc6C(F)(F)F)noc5C5CC5)C4)C3)ccc2n1 [Example 20]              pEC50        7.48

A. O=C(O)c1cccc(OCC2CC3(CC(/C=C/c4c(-c5c(Cl)cncc5Cl)noc4C4CC4)C3)C2)c1 (stereo not shown) [Example 47]
B. NC(=O)c1ncc(OCC2CC3(CC(/C=C/c4c(-c5ccccc5C(F)(F)F)noc4C4CC4)C3)C2)cc1OC1CC1 (stereo not shown) [Example 64]
C. O=C(O)c1cc2ccc(OCC3CC4(CC(/C=C/c5c(-c6ccccc6C(F)(F)F)noc5C5CC5)C4)C3)cc2nn1 (stereo not shown) [Example 54]
Qu. Put the items in order so that reported pEC50 rises from first to last. The response must list the labels following the requested ordering.
Ans. B, C, A

====

Biological target: human FXR (Homo sapiens, UniProt Q96RI1)
Construct: expressed in transfected cells; host or cells: HEK293 cells stably carrying a 5xGal4-response-element firefly luciferase reporter, transiently transfected with pcDNA3.1-Gal4-FXR
Sequence (Q96RI1 262-486 limits assumed): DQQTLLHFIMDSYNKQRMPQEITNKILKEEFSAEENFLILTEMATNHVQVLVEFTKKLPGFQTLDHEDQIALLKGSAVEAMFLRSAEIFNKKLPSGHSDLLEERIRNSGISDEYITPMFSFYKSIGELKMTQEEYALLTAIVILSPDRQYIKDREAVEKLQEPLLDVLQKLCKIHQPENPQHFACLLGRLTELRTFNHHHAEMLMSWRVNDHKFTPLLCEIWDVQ
Test: transient human FXR/Gal4-luciferase reporter assay
Format: cell-based
Conditions: Gal4-hFXR fusion construct, luciferase reporter HEK293 cells; response relative to 8 μM GW-4064; unit inferred
pEC50: −log10 of the molar value.
REPORTED PROPERTY: pEC50

1. O=C(O)c1cc(C(F)(F)F)c2cc(OCC3CC4(CC(/C=C/c5c(-c6ccccc6C(F)(F)F)noc5C5CC5)C4)C3)ccc2n1 (stereo not drawn) [Example 52]
2. Cc1cc(OCC2CC3(CC(/C=C/c4c(-c5ccccc5C(F)(F)F)noc4C4CC4)C3)C2)cnc1C(=O)O (single isomer, unassigned) [Example 31]
3. O=C(O)c1ncc(OCC2CC3(CC(/C=C/c4c(-c5ccccc5C(F)(F)F)noc4C4CC4)C3)C2)cc1OC1CC1 (stereo not drawn) [Example 61]
Qu. Going from lowest to highest recorded pEC50, rank the entries listed above. Please, when replying, give the labels in the order that was requested.
Ans. 2, 1, 3
